Biological target: UniProtKB Q00985
Sequence (Q00985 whole entry): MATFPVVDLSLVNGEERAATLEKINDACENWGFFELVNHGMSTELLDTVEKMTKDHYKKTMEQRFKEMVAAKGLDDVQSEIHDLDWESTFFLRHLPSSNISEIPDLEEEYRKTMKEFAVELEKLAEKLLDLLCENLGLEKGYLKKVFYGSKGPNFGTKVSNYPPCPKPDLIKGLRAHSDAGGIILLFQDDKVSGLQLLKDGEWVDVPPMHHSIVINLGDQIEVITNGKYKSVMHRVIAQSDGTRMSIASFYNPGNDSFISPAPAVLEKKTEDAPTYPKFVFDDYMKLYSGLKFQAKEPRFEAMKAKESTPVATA
Test: steady-state kinetics (data not shown)
Assay type: biochemical
measuredAttribute: Ki (µM)

A. O=C(O)CC(=O)O [Malonic acid]
B. O=C(O)CC(=O)C(=O)O [Oxaloacetic acid]
Which is greater in Ki, the first item A or the second item B ? Could you answer with the label of the item you picked?
B
(B: 930 µM, A: 70 µM)
